# Test system: CAF#5 (primary prostate cancer-associated fibroblasts of myCAF-like type)
# MEASUREMENT NOTES: drug sensitivity score (DSS2, normalised partial AUC of dose-response, 72 h CellTiter-Glo viability) (DSS (dimensionless)); higher = more sensitive (stronger growth inhibition / cytotoxicity); extreme values may be limits of the assay
This listing pairs compounds with measured drug sensitivity score.
MEASURED ENDPOINT: drug sensitivity score

# COMPOUND, ASSAYED SYSTEM, MEASURED ENDPOINT, NUMERIC RESULT
data = [
    ("Cc1c(Cn2c(C)nc3c(C(=O)O)cc(N4CCOCC4)cc32)cccc1C(F)(F)F (tested concentration range 1-10000 nM)", "CAF#5", "drug sensitivity score", 0.1),
    ("Cc1c(-c2c(-c3ccc(F)o3)sc3ncnc(O[C@H](Cc4ccccc4OCc4ccnn4CC(F)(F)F)C(=O)O)c23)ccc(OCCN2CCN(C)CC2)c1Cl (tested concentration range 0.1-1000 nM)", "CAF#5", "drug sensitivity score", 0),
    ("CNC(=O)c1ccc(-c2cnc3ncc(Cc4ccc5ncccc5c4)n3n2)cc1F [Capmatinib] (tested concentration range 0.1-1000 nM)", "CAF#5", "drug sensitivity score", 0),
    ("CC(C)n1cnc2c(NCCc3ccc(O)cc3)nc(-c3csc4ccccc34)nc21 [StemRegenin 1] (tested concentration range 1-10000 nM)", "CAF#5", "drug sensitivity score", 1.7),
    ("CC(C)C[C@@H](C(=O)N[C@H](C(=O)OC1CCCC1)c1ccccc1)[C@H](O)C(=O)NO [Tosedostat] (tested concentration range 1-10000 nM)", "CAF#5", "drug sensitivity score", 3.5),
    ("CCCC(CCC)C(=O)O [Valproic acid] (tested concentration range 100-1000000 nM)", "CAF#5", "drug sensitivity score", 0),
]

* * *

# Tested on: CAF#4 (primary prostate cancer-associated fibroblasts of iCAF-like type)
# MEASUREMENT NOTES: drug sensitivity score (DSS2, normalised partial AUC of dose-response, 72 h CellTiter-Glo viability) (DSS (dimensionless)); higher = more sensitive (stronger growth inhibition / cytotoxicity); extreme values may be limits of the assay
MEASURED ENDPOINT: drug sensitivity score

# MOLECULE, NUMERIC RESULT
records = [
    ("Cn1cc(C[C@@H](N)C(=O)O)c2ccccc21 [Indoximod] (tested concentration range 0.5-5000 nM)", 0),
    ("CC[C@H](C)C(=O)O[C@H]1C[C@H](O)C=C2C=C[C@H](C)[C@H](CC[C@@H](O)C[C@@H](O)CC(=O)O)[C@H]21 [Pravastatin] (tested concentration range 1-10000 nM)", 0),
    ("CN1CCN(c2ccc3nc(-c4c(N)c5c(F)cccc5[nH]c4=O)[nH]c3c2)CC1 [Dovitinib] (tested concentration range 1-10000 nM)", 0),
    ("Cc1ccc(-n2nc(C(C)(C)C)cc2NC(=O)Nc2ccc(OCCN3CCOCC3)c3ccccc23)cc1 [Doramapimod] (tested concentration range 1-10000 nM)", 0),
    ("Cc1cc(Nc2ncc(Cl)c(Nc3ccccc3S(=O)(=O)C(C)C)n2)c(OC(C)C)cc1C1CCNCC1 [Ceritinib] (tested concentration range 0.2-2500 nM)", 2.4),
    ("CC[C@H](CC#N)OC(=O)N[C@@H](C)c1cccc(NC(=O)Nc2ccc(-c3cnco3)c(OC)c2)c1 [AVN944] (tested concentration range 1-10000 nM)", 11.4),
    ("Cc1nc(C(=O)NCC(=O)O)c(O)c2ccc(Oc3ccccc3)cc12 [Roxadustat] (tested concentration range 1-10000 nM)", 0),
    ("CCn1c(=O)c(-c2ccc(Cl)cc2Cl)cc2cnc(Nc3ccc(N4CCNCC4)c(F)c3)nc21 [FRAX486] (tested concentration range 0.5-5000 nM)", 9.7),
    ("CC1(COc2ccc3c(c2)ncn3-c2ccc3cccc(N4CCC(N)CC4)c3n2)COC1 [Crenolanib] (tested concentration range 1-10000 nM)", 3.2),
    ("CCN(CC)CCNC(=O)c1c(C)[nH]c(/C=C2\\C(=O)Nc3ccc(-c4csc(-c5ccccc5)n4)cc32)c1C [Amcasertib] (tested concentration range 1-10000 nM)", 7.1),
    ("CN1C(=O)N[C@H](Cc2c[nH]c3c(Cl)cccc23)C1=O [Necrostatin 2] (tested concentration range 1-10000 nM)", 0),
]

* * *

This listing pairs compounds with measured drug sensitivity score.
# Tested on: CAF#3 (primary prostate cancer-associated fibroblasts of myCAF-like type)
# MEASUREMENT NOTES: drug sensitivity score (DSS2, normalised partial AUC of dose-response, 72 h CellTiter-Glo viability) (DSS (dimensionless)); higher = more sensitive (stronger growth inhibition / cytotoxicity); extreme values may be limits of the assay

# COMPOUND, drug sensitivity score
data = [
    ("CC(=O)Nc1ccc(C(=O)Nc2ccccc2N)cc1 [Tacedinaline] (tested concentration range 0.1-1000 nM)", 3.3),
    ("C1=N/C2=N/c3ccc(OCCN4CCCC4)c(c3)COC/C=C/COCc3cccc(c3)C(=C1)N2 [Pacritinib] (tested concentration range 1-10000 nM)", 9.4),
    ("Clc1ccccc1C(c1ccccc1)(c1ccccc1)n1cccn1 [TRAM-34] (tested concentration range 0.1-1000 nM)", 0),
    ("C/C=C1\\NC(=O)[C@H]2CSSCC/C=C/[C@H](CC(=O)N[C@H](C(C)C)C(=O)N2)OC(=O)[C@H](C(C)C)NC1=O [Romidepsin] (tested concentration range 0.1-1000 nM)", 23.1),
    ("CC(C)c1cc(-c2n[nH]c(=O)n2-c2ccc3c(ccn3C)c2)c(O)cc1O [Ganetespib] (tested concentration range 0.1-1000 nM)", 16.9),
    ("COc1cccc2c1C(=O)c1c(O)c3c(c(O)c1C2=O)C[C@@](O)(C(=O)CO)C[C@@H]3O[C@H]1C[C@H](N)[C@@H](O)[C@H](C)O1 [Epirubicin] (tested concentration range 0.1-1000 nM)", 3.7),
    ("Clc1ccc(C(c2ccccc2Cl)C(Cl)Cl)cc1 (configuration not stated) [Mitotane] (tested concentration range 1-10000 nM)", 0.2),
    ("CC[C@H](CO)Nc1nc(NCc2ccccc2)c2ncn(C(C)C)c2n1 [Seliciclib] (tested concentration range 1-10000 nM)", 1.4),
    ("CN(C)C(=O)c1ccc(S(=O)(=O)c2ccc(NC(=O)[C@@](C)(O)C(F)(F)F)c(Cl)c2)cc1 [AZD7545] (tested concentration range 1-10000 nM)", 0.4),
    ("CNS(=O)(=O)Nc1nccc(Cc2c(C)c3ccc(Oc4ncccn4)cc3oc2=O)c1F (tested concentration range 0.1-1000 nM)", 0),
    ("Nc1cc(F)ccc1NC(=O)c1ccc(CNC(=O)/C=C/c2cccnc2)cc1 [Tucidinostat] (tested concentration range 1-10000 nM)", 2.9),
    ("Cc1ccc(NC(=O)c2ccc(CN3CCN(C)CC3)cc2)cc1Nc1nc(-c2cccnc2)cs1 [Masitinib] (tested concentration range 1-10000 nM)", 0.6),
]

* * *

This listing pairs molecules with measured drug sensitivity score.
# System: CAF#4
# MEASUREMENT NOTES: drug sensitivity score (DSS2, normalised partial AUC of dose-response, 72 h CellTiter-Glo viability) (DSS (dimensionless)); higher = more sensitive (stronger growth inhibition / cytotoxicity); extreme values may be limits of the assay
MEASURED ENDPOINT: drug sensitivity score

# MOLECULE, RESULT
measured = [
    ("Cn1cc(C2=C(c3cn(C4CCN(Cc5ccccn5)CC4)c4ccccc34)C(=O)NC2=O)c2ccccc21 [Enzastaurin] (tested concentration range 1-10000 nM)", 1.1),
    ("CC(=O)OC[C@H]1O[C@@H]([S-])[C@H](OC(C)=O)[C@@H](OC(C)=O)[C@@H]1OC(C)=O.CCP(CC)CC.[Au+] [Auranofin] (tested concentration range 0.2-2500 nM)", 3.3),
    ("CCN1CCN(Cc2ccc(Nc3ncc(F)c(-c4cc(F)c5nc(C)n(C(C)C)c5c4)n3)nc2)CC1 [Abemaciclib] (tested concentration range 0.2-2500 nM)", 0.2),
]

* * *

# Test system: CAF#5
# MEASUREMENT NOTES: drug sensitivity score (DSS2, normalised partial AUC of dose-response, 72 h CellTiter-Glo viability) (DSS (dimensionless)); higher = more sensitive (stronger growth inhibition / cytotoxicity); extreme values may be limits of the assay

# COMPOUND, drug sensitivity score
records = [
    ("C[C@]12CC[C@H](O)CC1=CC[C@@H]1[C@@H]2CC[C@]2(C)C(c3cccnc3)=CC[C@@H]12 [Abiraterone] (tested concentration range 0.5-5000 nM)", 1.5),
    ("CCS(=O)(=O)Nc1ccc(Oc2ccc(F)cc2F)c(-c2cn(C)c(=O)c3[nH]ccc23)c1 [Mivebresib] (tested concentration range 1-10000 nM)", 15.5),
    ("O[C@H]1CC[C@H](Nc2ncc3nc(Nc4c(F)cc(F)cc4F)n([C@H]4CCOC4)c3n2)CC1 [Tanzisertib] (tested concentration range 1-10000 nM)", 0),
    ("CC(C)(C)NC(=O)[C@H]1CC[C@H]2[C@@H]3CC[C@H]4NC(=O)C=C[C@]4(C)[C@H]3CC[C@]12C [Finasteride] (tested concentration range 1-10000 nM)", 0),
    ("Cc1noc2c1-c1ccccc1C(c1ccc(Cl)cc1)=N[C@H]2CC(N)=O [CPI-0610] (tested concentration range 1-10000 nM)", 4.1),
]
